ASSAY SYSTEM: tubulin (αβ-heterodimer, bovine brain; maytansine site on β-tubulin)
Construct: with α-tubulin (αβ-heterodimer)
METHOD NOTES: equilibrium radioligand binding of 3H-S-methyl DM1 to tubulin-loaded liposomes (apparent Kd)

- ENTRY SMILES: "COc1cc2cc(c1Cl)N(C)C(=O)C[C@H](OC(=O)[C@H](C)N(C)C(=O)CCSC)[C@]1(C)O[C@H]1[C@H](C)[C@@H]1C[C@@](O)(NC(=O)O1)[C@H](OC)/C=C/C=C(\\C)C2"
  ASSAY SYSTEM: "tubulin (αβ-heterodimer, bovine brain; maytansine site on β-tubulin)"
  Kd / nM: 21.5

Where do these numbers come from? They come from paper PMC4324968.
